System: NFκB
run description: NFκB assay: luciferase reporter in stable Jurkat T-cells, PMA/PHA stimulated
Type: cell-based
condition description: Homo sapiens, PMA 50 ng/mL + PHA 1 μg/mL, 5 h, read-out: NFkB IC50
Method: Stable human Jurkat T-cells containing an NFκB binding site (from the MHC promoter) fused to a minimal SV-40 promoter driving luciferase expression were used in this experiment. […] These cells were counted, resuspended in fresh medium containing 10% Serum-Plus at a density of 1×10^6 cells/mL and plated in 96 well round bottom plates (200 μL per well) 18 hours prior to starting the experiment. […]
property label: IC50 (nM)

[
  {
    "compound": "CC1=CC(=O)N(Nc2nc(-c3cccs3)nc3cccc(Cl)c23)C1=O [Compound 21]",
    "unit spec": "nM",
    "IC50": 20
  }
]

A. COc1cc2nc(-c3cccs3)nc(NN3C(=O)C=C(C)C3=O)c2cc1OC [Compound 17]
B. CSc1ccc2nc(C(F)(F)F)nc(NN3C(=O)C=C(C)C3=O)c2c1 [Compound 8]
C. CC1=CC(=O)N(Nc2nc(-c3ccccc3)nc3ccccc23)C1=O [Compound 1]
Lookup: Let's sort these by IC50, smallest first. Go ahead? Please write the labels in the order that was asked for.
Found: A, B, C
(A: 40 nM, B: 60 nM, C: 100 nM)

I. CC1=CC(=O)N(Nc2nc(-c3cccs3)nc3cc(N(C)C)ccc23)C1=O [Compound 23]
II. CC1=CC(=O)N(N(C)c2nc(-c3cccs3)nc3ccccc23)C1=O [Compound 12]
Lookup: From the items above, decide which of I and II has the lower IC50 reading. # reply format: chosen label
Found: I
(I: 40 nM, II: 2200 nM)

====

Tested on: IL-8
run description: Inhibition of PMA/PHA-induced IL-8 production (ELISA, supernatants of NFκB reporter assay)
Assay type: cell-based
condition description: Homo sapiens
property label: IC50 (µM)

Sample answers from the record:
[
  {
    "structure string": "COc1cccc2nc(C(F)(F)F)nc(NN3C(=O)C=C(C)C3=O)c12",
    "IC50 / µM": 0.05
  },
  {
    "structure string": "CC1=CC(=O)N(Nc2nc(C(F)(F)F)nc3cc(N4CCCCC4)ccc23)C1=O",
    "IC50 / µM": 0.005
  },
  {
    "structure string": "CSc1ccc2nc(C(F)(F)F)nc(NN3C(=O)C=C(C)C3=O)c2c1",
    "IC50 / µM": 0.05
  },
  {
    "structure string": "CC1=CC(=O)N(Nc2nc(C(F)(F)F)nc3cccc(C)c23)C1=O",
    "IC50 / µM": 0.002
  }
]

1. CC1=CC(=O)N(Nc2nc(C(F)(F)F)nc3cc(Cl)ccc23)C1=O
2. CC1=CC(=O)N(Nc2nc(-c3cccs3)nc3cnccc23)C1=O
3. CC1=CC(=O)N(Nc2nc(C(F)(F)F)nc3ccccc23)C1=O
4. CC1=CC(=O)N(Nc2nc(-c3ccccc3)nc3ccccc23)C1=O
Lookup: Sort these compounds on IC50 so the largest reading comes first. Response field: labels, in requested order.
Found: 2, 1, 3, 4
(2: 0.1 µM, 1: 0.05 µM, 3: 0.03 µM, 4: 0.002 µM)
